Data credit: PubChem BioAssay (EPA / NIEHS)

Assay: APR_HepG2_MitoticArrest_24hr: Apredica 24-hour HepG2 Assay for Mitotic Arrest (AID 2282910)
Details: high-content imaging, actives raise or lower the signal
Protocol: APR_HepG2_24hr is a cell-based, multiplexed-readout assay that uses HepG2, a human liver cell line, with measurements taken at 24 hours after chemical dosing in a 384-well plate.APR_HepG2_MitoticArrest_24hr is one of 10 assay component(s) measured or calculated from the APR_HepG2_24hr assay. […] This assay endpoint, APR_HepG2_MitoticArrest_24hr, was analyzed with bidirectional fitting relative to DMSO as the negative control and baseline of activity. […]
Active and inactive are the calls of the source. How the source made its calls: active means hit-call score of the fitted dose curve at least 0.9, where 1 is the maximum; inactive means score below 0.9.
Answer with one of the outcomes true (1) for active, false (0) for inactive

Ask: Field: outcome | Entry: `O=C(O)C(F)(F)C(F)(F)C(F)(F)C(F)(F)C(F)(F)C(F)(F)C(F)(F)C(F)(F)C(F)(F)C(F)(F)F`
Result: true (1)

Ask: Field: outcome | Entry: `Cn1sc(Cl)cc1=O`
Result: true (1)

Ask: Field: outcome | Entry: `Cc1ccccc1N`
Result: false (0)

Ask: Field: outcome | Entry: `O=c1[nH]c(=O)[nH]c(=O)[nH]1`
Result: false (0)

Ask: Field: outcome | Entry: `CC(C)(OO)c1ccccc1`
Result: true (1)

Ask: Field: outcome | Entry: `O=C(Nc1ccc2[nH]ccc2c1)c1cc2cc(F)ccc2n1Cc1cccc(F)c1`
Result: true (1)

Ask: Field: outcome | Entry: CC12CC1(C)C(=O)N(c1cc(Cl)cc(Cl)c1)C2=O (configuration not stated)
Result: false (0)

Ask: Field: outcome | Entry: `C=CC(=O)OCCCCCC(C)C`
Result: false (0)

Ask: Field: outcome | Entry: `C=C(C)C(=O)[O][Sn]([CH2]CCC)([CH2]CCC)[CH2]CCC`
Result: true (1)

Ask: Field: outcome | Entry: `C[C@@H]1C[C@@H]([C@H](O)CC2CC(=O)NC(=O)C2)C(=O)[C@@H](C)C1`
Result: false (0)

Ask: Field: outcome | Entry: `CCCCCCCCc1ccc(O)cc1`
Result: true (1)

Ask: Field: outcome | Entry: `O=C(O)C(F)(F)C(F)(F)C(F)(F)C(F)(F)C(F)(F)C(F)(F)F`
Result: false (0)

Ask: Field: outcome | Entry: `NC(=O)O`
Result: true (1)

Ask: Field: outcome | Entry: `ClCC(Cl)CCl`
Result: false (0)

Ask: Field: outcome | Entry: `O=C(O)C(Cl)(Cl)Cl`
Result: false (0)

Ask: Field: outcome | Entry: O=C1C2(Cl)C3(Cl)C4(Cl)C(Cl)(Cl)C5(Cl)C3(Cl)C1(Cl)C5(Cl)C24Cl (configuration not stated)
Result: false (0)

Ask: Field: outcome | Entry: `Oc1cccc2cccnc12`
Result: false (0)

* * *

Read-out: Intercellular Adhesion Molecule 1 (ICAM1), ICAM1 (gene 3383)
Assay: BSK_3C_ICAM1: BioMAP Diversity Plus: 3C Assay for Intercellular Adhesion Molecule 1 (ICAM1) Biomarker Activity (AID 2283003)
Conditions: primary human endothelial cells (HUVEC); actives raise or lower the signal
Calls of active or inactive are those of the source. Rule for the calls: active = hit-call score of the fitted dose curve at least 0.9, where 1 is the maximum; inactive = score below 0.9.
Answer with one of the outcomes active, inactive

Ask: Field: outcome | Entry: `O=C(OC1CCCCC1)c1ccccc1C(=O)OC1CCCCC1`
Result: active

Ask: Field: outcome | Entry: CCCCC(CC)CO[N+](=O)[O-] (centres undefined)
Result: inactive

Ask: Field: outcome | Entry: `CN(C)N=O`
Result: inactive

Ask: Field: outcome | Entry: `COC[C@H](C)N(C(=O)CCl)c1c(C)csc1C`
Result: inactive

Ask: Field: outcome | Entry: CC(=O)C(Cl)C(=O)N(C)C (centres undefined)
Result: inactive

Ask: Field: outcome | Entry: `COP(=S)(OC)Oc1ccc(S(=O)(=O)N(C)C)cc1`
Result: inactive

Ask: Field: outcome | Entry: `O=C(O)C(Cl)(Cl)Cl`
Result: inactive

Ask: Field: outcome | Entry: ClC1(Cl)C2(Cl)C3(Cl)C4(Cl)C(Cl)(Cl)C5(Cl)C3(Cl)C1(Cl)C5(Cl)C24Cl (centres undefined)
Result: inactive

Ask: Field: outcome | Entry: `C=CC(=O)OCCCCCC(C)C`
Result: inactive

* * *

Read-out: Vascular cell adhesion molecule 1 (VCAM1), VCAM1 (gene 7412)
Assay: BSK_MyoF_VCAM1: BioMAP Diversity Plus: MyoF Assay for Vascular cell adhesion molecule 1 (VCAM1) Biomarker Activity (AID 2284231)
Details: primary human lung fibroblasts
Procedure: BSK_MyoF is a cell-based, multiplexed-readout assay that uses lung fibroblasts, […], with measurements taken at 24 hours after chemical dosing in a microplate: 96-well plate.BSK_MyoF_VCAM1 is an assay component measured in the BSK_MyoF assay. […] The levels of cell surface (or secreted, indicated by the prefix "s") biomarker endpoints were measured by ELISA. […] Plates were read after 6 h.
Active and inactive are the calls of the source. Rule for the calls: active = hit-call score of the fitted dose curve at least 0.9, where 1 is the maximum; inactive = score below 0.9.
Answer with one of the outcomes Y for active, N for inactive

Ask: Field: outcome | Entry: `C(=NC1CCCCC1)=NC1CCCCC1`
Result: Y

Ask: Field: outcome | Entry: `O=S(=O)(c1ccc(Cl)cc1)c1ccc(Cl)cc1`
Result: N

Ask: Field: outcome | Entry: `CC(C)c1ccc(CO)cc1`
Result: N

Ask: Field: outcome | Entry: `O=C(O)C(F)(F)C(F)(F)C(F)(F)C(F)(F)C(F)(F)C(F)(F)F`
Result: N

Ask: Field: outcome | Entry: CCCCC(CC)CO[N+](=O)[O-] (stereo not given)
Result: N

* * *

Assay: BSK_3C_Proliferation: Cell Proliferation Assessment in the BioMAP Diversity Plus: 3C Assay (AID 2283006);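 on AC50: potency may reflect either rise or fall in cell number versus DMSO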
Details: primary human endothelial cells (HUVEC)
Activity calls are given as the source filed them. The calls were made as follows: active = hit-call score of the fitted dose curve at least 0.9, where 1 is the maximum; inactive = score below 0.9.
readout_label: AC50

Here's what some known entries look like.
> print(dat)
                                   compound             value
1                                   NC(=O)O          inactive
2                    Nc1ncc([N+](=O)[O-])s1          inactive
3    CCOC(=O)/C=C(C)/C=C/C[C@@H](C)CCCC(C)C    20 µM (active)
4  CCCCC(CC)CO[N+](=O)[O-] (stereo not drawn)  30.8 µM (active)
5                           Nc1cccc2ccccc12  7.58 µM (active)

Ask: What value of AC50 has been reported for the following compound? CC(=O)C(Cl)C(=O)N(C)C (stereo not drawn)
Result: 20 µM (active)

Ask: What value of AC50 has been reported for the following compound? `C(=NC1CCCCC1)=NC1CCCCC1`
Result: 28.6 µM (active)

Ask: What value of AC50 has been reported for the following compound? CC12CC1(C)C(=O)N(c1cc(Cl)cc(Cl)c1)C2=O (stereo not drawn)
Result: inactive

Ask: What value of AC50 has been reported for the following compound? `CCNc1nc(NC(C)(C)C)nc(SC)n1`
Result: inactive

Ask: What value of AC50 has been reported for the following compound? `O=C(O)C(Cl)(Cl)Cl`
Result: inactive

Ask: What value of AC50 has been reported for the following compound? `Oc1c(I)cc(I)cc1I`
Result: 11.4 µM (active)

Ask: What value of AC50 has been reported for the following compound? `CCCCCCCCC(=O)NCc1ccc(O)c(OC)c1`
Result: 13.6 µM (active)

Ask: What value of AC50 has been reported for the following compound? `O=c1[nH]c(=O)[nH]c(=O)[nH]1`
Result: inactive

Ask: What value of AC50 has been reported for the following compound? `CCN1CCC2(CC1)COc1cc3c(cc12)N(C(=O)c1ccc(-c2ccc(-c4nnc(C)o4)cc2C)cc1)CC3`
Result: 5.23 µM (active)

Ask: What value of AC50 has been reported for the following compound? CCC(=O)C(CC(C)N(C)C)(c1ccccc1)c1ccccc1 (stereo not drawn)
Result: inactive

Ask: What value of AC50 has been reported for the following compound? `O=S(=O)(c1ccc(Cl)cc1)c1ccc(Cl)cc1`
Result: inactive

Ask: What value of AC50 has been reported for the following compound? `Oc1ccc(-c2ccccc2)cc1`
Result: inactive

Ask: What value of AC50 has been reported for the following compound? O=C1C2(Cl)C3(Cl)C4(Cl)C(Cl)(Cl)C5(Cl)C3(Cl)C1(Cl)C5(Cl)C24Cl (stereo not drawn)
Result: 4.9 µM (active)

Ask: What value of AC50 has been reported for the following compound? `ClC(Cl)=C(Cl)C(Cl)=C(Cl)Cl`
Result: 14.3 µM (active)

Ask: What value of AC50 has been reported for the following compound? `CC(C)(C)c1cc(O)ccc1O`
Result: 9.85 µM (active)

Ask: What value of AC50 has been reported for the following compound? `COP(=S)(OC)Oc1c(Cl)cc(C)cc1Cl`
Result: 20 µM (active)

Ask: What value of AC50 has been reported for the following compound? CCSC(C)CC1CC(=O)C(C(CC)=NOC/C=C/Cl)=C(O)C1 (stereo not drawn)
Result: inactive

Ask: What value of AC50 has been reported for the following compound? `Oc1cccc2cccnc12`
Result: 4.78 µM (active)

Ask: What value of AC50 has been reported for the following compound? `CC(C)(c1ccccc1)c1ccc(O)c(C(C)(C)c2ccccc2)c1`
Result: 6.91 µM (active)

Ask: What value of AC50 has been reported for the following compound? `CC(=O)[O][Hg][c]1ccccc1`
Result: 1.18 µM (active)

Ask: What value of AC50 has been reported for the following compound? `COP(=S)(OC)Oc1cc(Cl)c(Cl)cc1Cl`
Result: 20 µM (active)

Ask: What value of AC50 has been reported for the following compound? `CC1(C)Cc2cccc(O)c2O1`
Result: inactive

Ask: What value of AC50 has been reported for the following compound? `ClCC(Cl)CCl`
Result: inactive

Ask: What value of AC50 has been reported for the following compound? `O=C(OC1CCCCC1)c1ccccc1C(=O)OC1CCCCC1`
Result: 9.38 µM (active)

Ask: What value of AC50 has been reported for the following compound? `C[C@]12CCC(=O)C[C@@H]1CC[C@@H]1[C@@H]2CC[C@]2(C)[C@@H](O)CC[C@@H]12`
Result: 18.3 µM (active)

Ask: What value of AC50 has been reported for the following compound? `CC(C)(C)CC(C)(C)c1ccc(O)cc1`
Result: 7.69 µM (active)

Ask: What value of AC50 has been reported for the following compound? `C=C(C)C(=O)[O][Sn]([CH2]CCC)([CH2]CCC)[CH2]CCC`
Result: 0.148 µM (active)

Ask: What value of AC50 has been reported for the following compound? `NC(=S)Nc1ccccc1`
Result: inactive
